src = patent US8207193B2

Biological target: human muscarinic acetylcholine M3 receptor (M3-ACh) (Homo sapiens, UniProt P20309)
Sequence (P20309 whole entry): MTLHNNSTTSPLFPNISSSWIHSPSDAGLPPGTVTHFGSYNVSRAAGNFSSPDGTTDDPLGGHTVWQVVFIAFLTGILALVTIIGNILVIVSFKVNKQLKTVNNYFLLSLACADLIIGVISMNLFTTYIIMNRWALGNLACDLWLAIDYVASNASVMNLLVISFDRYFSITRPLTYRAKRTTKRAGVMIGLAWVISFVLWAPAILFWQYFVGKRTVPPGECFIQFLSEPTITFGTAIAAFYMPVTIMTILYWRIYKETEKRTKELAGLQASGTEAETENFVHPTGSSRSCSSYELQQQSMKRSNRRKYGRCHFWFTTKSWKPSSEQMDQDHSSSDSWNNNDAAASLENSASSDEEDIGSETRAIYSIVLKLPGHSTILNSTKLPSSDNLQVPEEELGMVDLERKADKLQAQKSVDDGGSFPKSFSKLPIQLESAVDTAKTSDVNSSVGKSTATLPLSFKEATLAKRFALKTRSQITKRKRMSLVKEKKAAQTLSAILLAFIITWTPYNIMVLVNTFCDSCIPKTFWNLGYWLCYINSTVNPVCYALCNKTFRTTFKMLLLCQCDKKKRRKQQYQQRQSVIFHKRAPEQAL
Test: biochemical
Format: binding
Settings: pIC50 of cycloheptyl (C7) compound

compound	IC50 [nM]
C[N+]12CCC(CC1)[C@@H](OC(=O)C1(c3ccccc3)CCCCCC1)C2	3.16
